Molecular target: D(3) dopamine receptor (Homo sapiens)
Test: qHTS of D3 Dopamine Receptor Antagonist: qHTS; note: % is set by controls: 0 for no effect and ±100 for the full control effect
Conditions: D3R cells, DiscoveRx beta-arrestin luminescence, antagonist mode; hits give low values
Hit rate of the full screen: of about 360,000 compounds, about 9,100 (2.5%) were called active. Inconclusive results (about 4%) are left out. For the sample, actives were picked, then their nearest neighbours and some compounds at random.
attribute measured: max response, negative = inhibition (%)
Record the value in %, omitting the unit from your answer.

Solved cases (8 shown):
>  <molecule>
Nc1cc(=O)c2[nH]cnc2[nH]1

>  <uom>
%

>  <max response, negative = inhibition>
15.5

$$$$
>  <molecule>
O=S1(=O)CC(N2CCN(CCO)CC2)CN1Cc1cn(Cc2cccc(Cl)c2)nn1 (stereo unspecified)

>  <uom>
%

>  <max response, negative = inhibition>
-8.85

$$$$
>  <molecule>
CNc1cnc(-c2cc(OC)c(OC)c(OC)c2)cn1

>  <uom>
%

>  <max response, negative = inhibition>
1.16

$$$$
>  <molecule>
COc1ccc(NC(=O)CCN2CCCC2)c(OC)c1

>  <uom>
%

>  <max response, negative = inhibition>
-50.5

$$$$
>  <molecule>
COc1ccc(NC(=O)CCn2ccnc2)c(OC)c1

>  <uom>
%

>  <max response, negative = inhibition>
-22.6

$$$$
>  <molecule>
Cc1ccc(S(=O)(=O)N2[C@@H](Cc3ccccc3)CO[C@H]2CC(=O)OCc2ccccc2)cc1

>  <uom>
%

>  <max response, negative = inhibition>
-24.9

$$$$
>  <molecule>
CCc1nc2c(OCCC3CCCCC3)cccn2c1N(C)C(=O)c1ccco1

>  <uom>
%

>  <max response, negative = inhibition>
-17.4

$$$$
>  <molecule>
CCOc1ccccc1NC(=O)NC1CCCCCCC1

>  <uom>
%

>  <max response, negative = inhibition>
0.28

$$$$

The measured max response, negative = inhibition associated with COC(=O)c1ccc2nc(-c3ccc(Cl)cc3)c(Cc3cccc(F)c3)n2c1 reads 88.8

The measured max response, negative = inhibition associated with CCc1ccccc1NC(=O)CN1CCN(C(=O)c2cc(C3CC3)nn2-c2ccccc2)CC1 reads 13.7

The measured max response, negative = inhibition associated with CN1CCn2cnc(C(=O)NCC(=O)OC(C)(C)C)c2C1=O reads -5.8
